# Tested on: MDA-MB-468 breast
# assay_procedure: NCI-60 one-dose screen, 48 h
# condition_description: 10 µM unless noted
About 83,000 compounds went through this panel and 20% of them were active in at least one assay; those are over-represented in the sample as a whole. Active and inactive are the calls of the source. How the source made its calls: active means growth percent below 10; inactive means the rest.
Classes used: active, inactive

INSERT INTO results (compound, class_name) VALUES
  ('CS(=O)(=O)c1ccc(-c2nc3ccccn3c2/C=N/Nc2nc(-c3ccc(Br)cc3)cs2)cc1', 'inactive'),
  ('CCOC(=O)c1[nH]c(C)c(C(=O)O)c1C', 'inactive'),
  ('COc1ccc(-n2c(=O)n(-c3ccc(-c4nc5ccc(F)cc5s4)cc3)c(=O)c3cccnc32)cc1', 'inactive'),
  ('CCO/C=N/C1=C(C#N)C(c2ccc(Cl)cc2)c2sc3c(CC)cccc3c2O1 (stereo unspecified)', 'active'),
  ('CCCCCCNC(=O)Oc1ccc(/C(=C(/C)c2ccccc2)c2ccc(OCCN3CCCCCC3)cc2)cc1', 'active'),
  ('COc1cc(/C=C/C(=O)c2ccc(Nc3ncnc4cc(OC)c(OC)cc34)cc2)cc(OC)c1', 'inactive'),
  ('ClCC1(Cn2cnc3c(Cl)nc(Cl)nc32)COC1', 'inactive'),
  ('CC1Cc2ccccc2N1NC(=O)c1ccc(Cl)c(S(N)(=O)=O)c1 (stereo unspecified)', 'inactive'),
  ('COc1ccc(N2CCN(C3=C(Cl)C(=O)c4ncccc4C3=O)CC2)cc1', 'active'),
  ('CCCC(=O)CC(=O)c1ccccc1', 'inactive'),
  ('Cn1c(=O)c2c(nc3n(-c4ccc(Cl)cc4Cl)c(Sc4nc(-c5ccccc5)c(C#N)c(=O)[nH]4)cn23)n(C)c1=O', 'inactive'),
  ('O=C(Nc1cccc(-n2cc(-c3ccncc3)c(-c3ccc(Cl)c(O)c3)n2)c1)c1ccccc1', 'inactive'),
  ('Clc1ccc(-c2cn(-c3ccccc3)c(-c3ccccc3)n2)c(Cl)c1', 'active'),
  ('CC(=O)C1CCC2C3CC(F)C4=CC(=O)CCC4(C)C3C(O)CC12C (stereo unspecified)', 'inactive'),
  ('O=C1c2cccc3cccc(c23)C(=O)N1Nc1nc(NC2CCCCC2)nc(N2CCOCC2)n1', 'inactive'),
  ('C=CCCC(=O)N1C=CC(=O)[C@H](O)[C@@H]1/C=C/c1ccccc1', 'active'),
  ('CCCCC(=O)c1ccco1', 'inactive'),
  ('O=C(/C=C/c1ccc(F)cc1)Nc1cccc2cccnc12', 'active'),
  ('O=S(=O)(Nc1ccc(F)c(Cl)c1)c1ccc(-c2cnc(C3CC3)o2)cc1', 'active'),
  ('COc1cc(/C=C/C(=O)Nc2ccc3c(c2)/C(=C\c2cccn2C)C(=O)N3)cc(OC)c1OC', 'inactive'),
  ('O=C1CNC(c2ccccc2)C(c2ccccc2)N1 (stereo unspecified)', 'inactive'),
  ('C=C1C(=O)O[C@H]2[C@H]1CC/C(COC(=O)c1cccnc1N)=C\CC[C@@]1(C)O[C@@H]21', 'inactive'),
  ('CCCCCCN1C=C/C(=C\C(=O)n2ccc3ccccc32)c2ccccc21', 'active'),
  ('C=C1C(=O)O[C@H]2[C@H]1CC/C(Cn1cc(CCC)nn1)=C\CC[C@@]1(C)O[C@@H]21', 'active'),
  ('CCN(CC)CCCC(C)Nc1cc(-c2ccc(C(F)(F)F)cc2)c(C#N)c2nc3ccccc3n12 (stereo unspecified)', 'active'),
  ('CN1CCN(Cc2ccc(NC(=O)c3cncc(C#Cc4c(N)ncc5cc(F)ccc45)c3)cc2C(F)(F)F)CC1', 'inactive');
